Target: Cytochrome P450 3A4 (Homo sapiens) (UniProt P08684)
Sequence (P08684 whole entry, looked up): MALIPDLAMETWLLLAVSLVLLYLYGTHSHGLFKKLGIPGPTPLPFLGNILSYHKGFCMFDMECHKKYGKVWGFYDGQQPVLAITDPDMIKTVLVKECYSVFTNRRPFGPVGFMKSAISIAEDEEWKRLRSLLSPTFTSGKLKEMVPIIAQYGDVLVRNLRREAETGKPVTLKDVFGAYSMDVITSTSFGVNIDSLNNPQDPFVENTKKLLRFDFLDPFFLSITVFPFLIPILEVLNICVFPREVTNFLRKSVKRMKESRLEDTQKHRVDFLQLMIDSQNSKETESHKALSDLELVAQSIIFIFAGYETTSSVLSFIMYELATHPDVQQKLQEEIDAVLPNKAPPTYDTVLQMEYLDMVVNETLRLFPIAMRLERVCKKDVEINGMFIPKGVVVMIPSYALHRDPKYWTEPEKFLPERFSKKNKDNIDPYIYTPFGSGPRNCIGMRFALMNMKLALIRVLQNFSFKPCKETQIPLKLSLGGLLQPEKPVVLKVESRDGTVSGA
Experiment: qHTS Assay for Activators of Cytochrome P450 3A4 (AID 885); also: nearly all actives have a fitted effect of over 65% in size
Settings: recombinant CYP3A4, Luciferin-PPXE luminescence, 60 min; series mostly up to 57.1 µM
Active and inactive are the calls of the source. Calls follow the shape of the dose curve; as a rule, active = well fitted activation curve with a large enough effect; inconclusive = small, poorly fitted or top-dose-only effect; inactive = no such curve, though single readings can be large or run the other way.
Permitted responses: YES (active), NO (inactive)

compound: Cc1noc(C)c1-c1nc(N(C)C)c2ccccc2n1
assigned_category: NO

GET /call?item= Cc1cnc(CNc2ncnc3ccc(-c4cccc(C#N)c4)cc23)cn1 returns the recorded outcome of this test. NO

Called result for CN(C)c1ncc2nc(-c3cccs3)c(=O)n(C)c2n1 NO

I'd appreciate the recorded outcome for COCC(=O)N1CCC[C@@]2(CCN(Cc3nccs3)C2)C1 from this test. NO

Which result was noted for this compound in the test: O=C1C=CC2=C3c4cc(O)c(O)cc4CC3(O)COC2=C1O (stereo not given) NO

Call for entry O=C(c1csnn1)N1CCC2(CC1)CCN(c1ccncc1)CC2 : NO

Hey, what did the test say about O=C(c1cccc(F)c1)N1CCC2(CC1)CN(c1ccccc1)C2 ? YES

In this assay, the call recorded for COc1ncc2nc(C)c(=O)n(-c3ccccc3)c2n1 was what? NO

Which outcome was entered for the compound COc1ccccc1CCn1c(=O)c(-c2ccc(Cl)cc2)nc2cncnc21 in this test? NO

Entry Cn1c(=O)c(-c2ccc(F)c(F)c2)nc2cncnc21 : call = ? NO

Returns: the outcome recorded for O=C(c1cccc(F)c1)N1CCC2(CCN(Cc3ccncc3)CC2)CC1 in this assay. NO

Query: recorded result category for Cn1c(=O)cnc2cnc(Nc3ccccc3)nc21 in this test NO

Which outcome did this test record for the compound O=S(=O)(c1ccccc1)N1CCC2(CC1)CN(c1ccccn1)C2 ? NO

# fetch the recorded call for COc1ccc2[nH]cc(CCNc3cc(-c4ccccc4C)ncn3)c2c1 here NO

Could you kindly confirm the outcome this assay logged for FC(F)(F)c1cc(CN2CC[C@@]3(CCCNC3)C2)cc(C(F)(F)F)c1 ? NO

Check the results log: what was the call for COc1cccc(-c2nccc(NCc3ccc(OC)cc3OC)n2)c1 ? NO

Lab log entry: COCCNc1ncnc2ccc(-c3c(C)noc3C)cc12 — outcome as called in the assay? NO

# outcome recorded in this test, key = COc1ccc(C(=O)N2CCC3(CC2)CCN(C(c2ccccc2)c2ccccc2)CC3)cc1 YES

What did the test return for COc1cccc(-c2nccc(NCc3cccnc3)n2)c1 ? NO

GET /call?item= CN(C)C(=O)c1ccc(-c2cncnc2NCc2cccs2)cc1 returns the recorded outcome of this test. NO
